study system: UniProt:Q9Y5Y4
Sequence (Q9Y5Y4 whole entry): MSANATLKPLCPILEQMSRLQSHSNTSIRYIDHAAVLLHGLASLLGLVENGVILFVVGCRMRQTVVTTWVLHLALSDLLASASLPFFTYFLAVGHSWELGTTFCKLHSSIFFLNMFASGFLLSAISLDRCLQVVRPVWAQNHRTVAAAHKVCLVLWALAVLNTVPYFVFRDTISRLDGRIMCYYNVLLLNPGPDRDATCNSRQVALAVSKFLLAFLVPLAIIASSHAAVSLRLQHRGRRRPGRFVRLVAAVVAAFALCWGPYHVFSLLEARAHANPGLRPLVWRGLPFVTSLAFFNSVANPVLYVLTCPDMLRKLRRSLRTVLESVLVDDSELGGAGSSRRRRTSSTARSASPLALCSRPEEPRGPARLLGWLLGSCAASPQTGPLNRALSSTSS
assay text: Determination of Ki, equilibrium competition binding against [3H]PGD2
condition description: competition against [3H]PGD2; average of at least three independent dose response experiments; Ki calculated from IC50
pKi: −log10 of the molar value.

[
  {
    "molecule": "O=S(=O)(Nc1nccnc1-c1ccc(Cn2ccc3ccccc32)cc1)c1ccccc1Cl [Compound 6]",
    "pKi": 5.67
  },
  {
    "molecule": "CN(Cc1ccc(-c2nccnc2NS(=O)(=O)c2cccs2)cc1)c1ccc(Cl)cc1 [Compound 12]",
    "pKi": 5.07
  },
  {
    "molecule": "CN(Cc1ccc(-c2nccnc2NS(=O)(=O)c2ccccc2C(F)(F)F)cc1)c1ccc(F)cc1 [Compound 17]",
    "pKi": 6.42
  },
  {
    "molecule": "COc1cccc(COCc2ccc(-c3nccnc3NS(=O)(=O)c3ccccc3C(F)(F)F)cc2)c1 [Compound 10]",
    "pKi": 5.85
  }
]
